Biological target: fMet-Leu-Phe receptor (Homo sapiens) (UniProt P21462)
Sequence (P21462 whole entry, looked up): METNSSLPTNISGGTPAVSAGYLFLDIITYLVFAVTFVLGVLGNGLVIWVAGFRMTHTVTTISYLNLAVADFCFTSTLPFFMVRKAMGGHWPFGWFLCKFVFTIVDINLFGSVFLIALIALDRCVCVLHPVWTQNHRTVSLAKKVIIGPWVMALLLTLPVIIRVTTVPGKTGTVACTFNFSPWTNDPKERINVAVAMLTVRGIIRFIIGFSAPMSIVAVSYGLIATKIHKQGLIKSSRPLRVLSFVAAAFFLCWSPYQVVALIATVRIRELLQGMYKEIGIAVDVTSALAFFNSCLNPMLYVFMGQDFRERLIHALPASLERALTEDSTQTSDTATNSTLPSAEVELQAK
Assay: FPR antagonists blocking calcium signaling, confirmation, cell-based, calcium response (AID 699)
Details: FPR1 cells, ligand-induced calcium response inhibition; active compounds read high; concentration not given here
metricName: inhibition (%)

I: CC(C)CN(CC(C)C)C(=O)CS(=O)(=O)Cc1ccccc1
II: COc1ccc(OC)c(C2/C(=C(/O)c3ccccc3)C(=O)C(=O)N2Cc2ccco2)c1 (stereo not given)
III: Cc1c(C(=O)NC2CCCc3ccccc32)oc2ccc(S(=O)(=O)N3CCOCC3)cc12 (stereo not given)
IV: COC(=O)c1[nH]c(C)c(/C(O)=C2\C(=O)C(=O)N(CCCN3CCOCC3)C2c2ccccn2)c1C (stereo not given)
// smallest inhibition at index 0, largest at the end # the answer lists labels in the order requested
I, IV, II, III
(I: -0%, IV: 26.5%, II: 38.1%, III: 66.4%)
